Reference for the values: ChEMBL document CHEMBL1201862

# Test system: MOLT-4
# assayName: NCI tumour cell line growth inhibition, 48 h
Calls of active or inactive are those of the source. Cut-off read from the data, not from the text of the source: active = GI50 up to about 1.1 µM and inactive = higher.
measuredQuantity: GI50

Enter recorded GI50 with MOLT-4 for CCOC(=O)C1(Br)C(c2ccccc2)NC(=O)N(C2OC(COC(=O)c3ccccc3)C(OC(=O)c3ccccc3)C2OC(=O)c2ccccc2)C1(C)Br (stereo not given) here.
18.2 µM (inactive)

Give measured GI50 for COc1ccc(C2OC(=O)c3ccc4ccccc4c32)c(C)c1 (stereo not given) (MOLT-4).
7.73 µM (inactive)

# return GI50 of O=C1OC(c2ccccc2)=N/C1=C/C=C/c1ccco1 (system: MOLT-4)
> 100 µM (inactive)

Write down the reported GI50 (system: MOLT-4) of CC(C)c1ccc(/C=C2\CSCC3=C2N=C(S)NC3c2ccc(C(C)C)cc2)cc1 (stereo not given)
29.6 µM (inactive)

Give measured GI50 for C[C@]12CCC3[C@@H](C[C@H]4OC(=O)[C@@]35CCC(=O)C=C45)C1CCC2=O (stereo not given in full) (MOLT-4).
> 100 µM (inactive)

Under MOLT-4: report GI50 of Cc1cccc2c1c(=O)c1c(O)cc(O)cc1n2C .
70.5 µM (inactive)

Given COC(=O)C1=C(c2ccc3c(c2)OCO3)OC(c2ccc3c(c2)OCO3)C1 (stereo not given) , report its GI50 on MOLT-4.
16.9 µM (inactive)

Give the observed GI50 of O=C1c2ccccc2NC1(c1ccccc1)c1c(-c2ccccc2)[nH]c2ccccc12 (stereo not given) for MOLT-4.
2.91 µM (inactive)

Consider the compound CC(C)OC(=O)c1ccc(CCc2cc(O)c(Br)cc2O)cc1 tested on MOLT-4; state its GI50.
7.94 µM (inactive)

Recall the reported GI50 of Cc1[nH]c(-c2ccccc2)c(O)c1C(=O)OC1CC(C)CCC1C(C)C (stereo not given) on MOLT-4 and write it down.
11.1 µM (inactive)

###

# Tested on: RPMI-8226
# assayName: NCI tumour cell line growth inhibition, 48 h
The source made the active and inactive calls. No stated cut-off is given here; in the data, active = GI50 up to about 1.1 µM and inactive = higher.
measuredQuantity: GI50

Name the recorded GI50 of the compound listed here: CC(=O)Nc1ccc(/C=C/C(=O)c2sc(-n3nc(-c4ccccc4)cc3-c3ccccc3)nc2C)cc1
> 10 µM (inactive)

Quickly give me recorded GI50 for NNc1nncc2[nH]cnc12
> 100 µM (inactive)

# return recorded GI50 for entry O=C(O)CN(CC(=O)O)Cc1cc(C#Cc2ccc(C#Cc3ccccc3)cc2)cc(CN(CC(=O)O)CC(=O)O)n1
17.1 µM (inactive)

Give GI50 for CC(Oc1ccc(Cl)cc1Cl)C(=O)NN1C(=O)CC(=O)NC1=S (stereo not given)
46 µM (inactive)

Return GI50 for the following compound: Cn1c([C@H](C#N)c2ncccc2[N+](=O)[O-])nc2ccccc21
> 100 µM (inactive)

Find the measured GI50 of Sc1ccc2ccccc2c1CNCc1ccccc1 and report it.
12.5 µM (inactive)

Please supply the value of reported GI50 for the item O=[N+]([O-])c1cc(-[n+]2cc([O-])on2)ccc1Cl
24.3 µM (inactive)

Give the measured GI50 for O=S1(=O)c2ccccc2NC(=S)CC1c1ccccc1 (stereo not given)
> 100 µM (inactive)

# return recorded GI50 for input O=C(O)c1cccc(S(=O)(=O)NN2C(=O)CSC2c2ccc(Cl)cc2Cl)c1 (stereo not given)
97.3 µM (inactive)

Please give the documented GI50 of CCCCc1c2c(nc3c1CCc1cc4c(nc1-3)-c1nc3c(c(CCCC)c1CC4)CCC/C3=C\c1ccccc1)/C(=C/c1ccccc1)CCC2
> 100 µM (inactive)

###

# Tested on: RPMI-8226
# assayName: NCI tumour cell line growth inhibition, 48 h
The source made the active and inactive calls. Rule as the data show it: active = GI50 up to about 1.1 µM and inactive = higher.
Reply using exactly one outcome from YES for active, NO for inactive

What was the test verdict on Cc1cc[n+]2c(c1)-c1cc(C)cc[n+]1CC2 ?
NO

Given ON=C1CCCCC(=NO)CCCC1 , state the outcome it received in this test.
NO

Each molecule tested received a call. Report the one for CC(C)OC(=O)c1ccc(CCc2cc(O)c(Br)cc2O)cc1 .
NO

// param item: C/C(=N/NC(=S)Nc1cccc(C)c1)c1ccccn1 ; yields the recorded call
YES

Give the logged outcome of this assay for the following molecule: COC(=O)c1cc(O)c(O)c(O)c1-c1c(O)c(O)c(O)c(SC[C@H](NC(=O)OCc2ccccc2)C(=O)OCc2ccccc2)c1C(=O)OC
NO

Which outcome was assigned to CC1CC2(CC[C@@H]1O)OCCO2 (stereo not given in full) in this test?
NO

Name the outcome recorded for COc1ccc(OC)c(NC(=O)CCC/C(CC(=O)c2ccc(O)c(OC)c2)=N\Nc2nnc(C)n2N)c1 in the assay.
NO

Please let me know the test result on file for CSCCCNC(=O)c1csc(-c2csc(CCN)n2)n1 .
NO

Query: recorded result category for CC(C)(C)c1nc2c(o1)/C(=N\c1ccccc1)c1ccccc1C2=O in this test
NO

What did this assay record as the result for CC(C)(C)c1cc(COc2c3sc(=S)sc3c(OCc3cc(C(C)(C)C)cc(C(C)(C)C)c3)c3sc(=S)sc23)cc(C(C)(C)C)c1 ?
NO

###

Assign GI50 to each entry below.
# Test system: 786-0
# assayName: NCI tumour cell line growth inhibition, 48 h
Calls of active or inactive are those of the source. Cut-off read from the data, not from the text of the source: active = GI50 up to about 1.1 µM and inactive = higher.

Determine from records and report GI50 for COc1ccc(/C=C(\C#N)c2nc3ccccc3c(=O)[nH]2)cc1
13.9 µM (inactive)

Name the recorded GI50 of the molecule listed here: OCC1CC2C=CCC(C2)C1 (stereo unspecified)
> 100 µM (inactive)

Indicate its recorded GI50; the molecule in question is COc1cc(C2c3cc4c(cc3[C@@H](OCCN(C)C)C3COC(=O)[C@H]23)OCO4)cc(OC)c1O (stereo partly specified)
0.139 µM (active)

Return the recorded GI50 value; entry: COc1ccc(OC)c(-c2cc(O)c3cc4c(cc3n2)OCO4)c1
6.47 µM (inactive)

Indicate the recorded GI50 value for this molecule: CS(=O)(=O)N1CC(CCl)c2ccc(NO)cc21 (stereo unspecified)
13.4 µM (inactive)

Output GI50 of N/N=C(\N)Nc1cccc2ccccc12
> 100 µM (inactive)

State its GI50: CCCCCCc1cc(C(=O)Nc2cccc(C(F)(F)F)c2)nc(N)n1
> 100 µM (inactive)

Give the reported value of GI50 for this record: COc1ccc(NC(=O)C(=O)Cc2nc3ccc(C(=O)c4ccccc4)cc3nc2O)c([N+](=O)[O-])c1
39.1 µM (inactive)

Supply reported GI50 belonging to this molecule: O=C1c2cccc3cc([N+](=O)[O-])cc(c23)C(=O)N1O
45.2 µM (inactive)

Provide measured GI50 value, entry: COc1cc(C2=NN(C)C(c3ccc([N+](=O)[O-])o3)C2)cc(OC)c1OC (stereo unspecified)
23.1 µM (inactive)

Please supply the value of reported GI50 for the item Cc1c(Cl)ccc2c1NC(=O)C2(O)CC(=O)c1ccc(Cl)cc1 (stereo unspecified)
47.1 µM (inactive)

Please give measured GI50 of the following entry: Cc1cccc(C)c1NC(=O)C(=O)CC(=O)CO
> 100 µM (inactive)

State its GI50 for this molecule: COC(C[C@H]1CCCC[C@]1(O)/C(=C\CO[Si](C(C)C)(C(C)C)C(C)C)Sc1ccccc1)OC
39.4 µM (inactive)

Fill in reported GI50 for this entry: O=C(O)/C(Cc1ccc([N+](=O)[O-])cc1)=N\O
> 100 µM (inactive)

Quickly give me recorded GI50 for COC(=O)C1=C(c2ccc3c(c2)OCO3)OC(c2ccc3c(c2)OCO3)C1 (stereo unspecified)
> 100 µM (inactive)

State its GI50: COc1cc([C@@H]2c3cc4c(cc3[C@@H](NCc3ccc(C#N)cc3)C3COC(=O)[C@@H]32)OCO4)cc(OC)c1O (stereo partly specified)
0.632 µM (active)

# return recorded GI50 for entry N#CC1=C(c2ccccc2)C(O)(c2ccccc2)NC1=O (stereo unspecified)
> 100 µM (inactive)

Determine its reported GI50: CCOC(=O)c1nc2ccccc2nc1Nc1ccc(Cl)c(Cl)c1
29.2 µM (inactive)

Output GI50 of CC(Oc1ccc(Cl)cc1Cl)C(=O)NN1C(=O)CC(=O)NC1=S (stereo unspecified)
> 100 µM (inactive)

Supply measured GI50 of Cc1ccc(NC(=O)C(=O)C(C#N)c2nc(-c3ccc(-c4ccccc4)cc3)cs2)c(C)c1 (stereo unspecified) in your reply.
> 100 µM (inactive)

Quick one: give measured GI50 for CC(=O)OC1=C2CC[C@@H]3C(CC[C@@]4(C)C3CC[C@@H]4OC(C)=O)[C@@]2(C)CC(C#N)C1=O (stereo partly specified)
10.8 µM (inactive)

###

# System: COLO 205
# assayName: NCI tumour cell line growth inhibition, 48 h
The source made the active and inactive calls. Cut-off read from the data, not from the text of the source: active = GI50 up to about 1.1 µM and inactive = higher.
Exercise: state measured GI50 for each of the molecules provided.

Tell us which GI50 value is on record for C[C@@H]1CC[C@@H]2[C@@H](C1)O[C@@H]([C@H](C)OCc1ccccc1)SC2(C)C
19.3 µM (inactive)

Kindly indicate its recorded GI50. Item: Cc1cnc2ccc(C)c([N+](=O)[O-])c2c1NCCCN(C)C
76.2 µM (inactive)

Return the recorded GI50 value; entry: O=C1Nc2ccc(Br)cc2/C1=N/c1ccc(Cl)cc1
1.78 µM (inactive)

Indicate its recorded GI50; the molecule in question is O=[N+]([O-])/C(C(Cl)=C(Cl)Cl)=C1\Nc2ccccc2O1
60.1 µM (inactive)

Fill in GI50 for record COc1nc(NC2OCC(O)C(O)C2O)c(NC2OCC(O)C(O)C2O)c(=O)n1C (stereo unspecified)
> 100 µM (inactive)

Identify measured GI50 corresponding to Cn1c2ccccc2c2c3c(=O)[nH][nH]c(=O)c3c3c4ccccc4n(C)c3c21
> 89.1 µM (inactive)

Give the value of GI50 reported for the following: CC1(C)COC(c2cccc(C(O)c3ccc(Cl)cc3)c2)=N1 (stereo unspecified)
18 µM (inactive)

# return recorded GI50 for input COc1ccc(C2(O)c3ccccc3C(=O)N(C)C2(O)c2ccc(OC)cc2)cc1 (stereo unspecified)
22.6 µM (inactive)

In one line, give reported GI50 of the entry Fc1ccc(C2SCc3nc4ccccc4n32)cc1 (stereo unspecified) .
57 µM (inactive)

Using the record for Brc1cccc(/C=C/CN2CCN(CCOC(c3ccccc3)c3ccccc3)CC2)c1 , state its measured GI50.
14.2 µM (inactive)

Identify measured GI50 associated with Cc1cc(C)c(C(=O)O)c(N)c1O
> 100 µM (inactive)

Please list GI50 recorded for the molecule NN=C(CC(O)(C(F)(F)Cl)C(F)(F)Cl)CC(O)(C(F)(F)Cl)C(F)(F)Cl
> 10 µM (inactive)

Please look at this molecule and report its GI50: COn1oc(=O)c2ccccc21
> 100 µM (inactive)

Entry Cc1cn(C(=O)NC23CC4CC(CC(C4)C2)C3)c(=O)[nH]c1=O needs its GI50 filled in; supply it.
24 µM (inactive)

Give the measured GI50 for COn1cc(C=O)c2ccccc21
> 100 µM (inactive)

State, in one line, measured GI50 of NNC(=O)N/N=C1\CN(c2ccc(Cl)cc2Cl)C(=O)C(=O)C1c1nc2ccccc2o1 (stereo unspecified)
> 100 µM (inactive)

Return value of GI50 for input CN1CCN(C)C12C=c1ccccc1=CC21CC1 , no commentary.
15.7 µM (inactive)

Query GI50 for C=C(C)C1(Sc2ccc(OC)cc2)CC1
17.1 µM (inactive)

Provide only the value of recorded GI50 for COC(=O)C(Cc1nc2ccccc2nc1O)C(=O)C(=O)Nc1ccc(OC)cc1[N+](=O)[O-] (stereo unspecified)
> 100 µM (inactive)

For Sc1ccc2ccccc2c1CNCc1ccccc1 , write its GI50.
13.7 µM (inactive)

State, in one line, measured GI50 of C=C1C2CC3CCC2C(OC(=O)c2ccccc2C(=O)O)C13 (stereo unspecified)
> 100 µM (inactive)

Give me measured GI50, please, for this molecule: CC(C)(C)OC(=O)/C=C/C(=O)O/C=C/[N+](=O)[O-]
> 100 µM (inactive)

Answer with reported GI50 of CCOC(=O)C1(Br)C(c2ccccc2)NC(=O)N(C2OC(COC(=O)c3ccccc3)C(OC(=O)c3ccccc3)C2OC(=O)c2ccccc2)C1(C)Br (stereo unspecified)
24.4 µM (inactive)

Answer with reported GI50 of CC1CC2(CC[C@@H]1O)OCCO2 (stereo partly specified)
> 100 µM (inactive)

Query GI50 for CC(C)OC(=O)c1ccc(CCc2cc(O)c(Br)cc2O)cc1
15.2 µM (inactive)

Given the molecule C1CSCC2(COC2)CSCCSCC2(COC2)CS1 , write its reported GI50.
> 100 µM (inactive)

State, in one line, measured GI50 of Cc1cccc2c1c(=O)c1c(O)cc(O)cc1n2C
30 µM (inactive)

Look up GI50 of COc1ccc(Oc2cnn(C(Br)(Br)C(C)=O)c(=O)c2Br)cc1 and report it.
13.4 µM (inactive)

Provide GI50 value for the following molecule: COc1ccc(-c2cc(-c3ccc(Nc4ccnc5cc(C(F)(F)F)ccc45)cc3)[nH]c(=O)c2C#N)c2ccccc12
> 37.7 µM (inactive)

Look up and state reported GI50 for CCc1nnc(S)n1/N=C\c1ccc(-c2ccccc2[N+](=O)[O-])o1
29.9 µM (inactive)

Respond only with GI50 recorded for Cc1ccc2ccccc2c1CC1S(=O)(=O)OCCOS1(=O)=O
2.43 µM (inactive)
